- test_system: Neuronal acetylcholine receptor; alpha3/beta4 (Homo sapiens, UniProt P30926+P32297)
- Sequence (P30926 whole entry): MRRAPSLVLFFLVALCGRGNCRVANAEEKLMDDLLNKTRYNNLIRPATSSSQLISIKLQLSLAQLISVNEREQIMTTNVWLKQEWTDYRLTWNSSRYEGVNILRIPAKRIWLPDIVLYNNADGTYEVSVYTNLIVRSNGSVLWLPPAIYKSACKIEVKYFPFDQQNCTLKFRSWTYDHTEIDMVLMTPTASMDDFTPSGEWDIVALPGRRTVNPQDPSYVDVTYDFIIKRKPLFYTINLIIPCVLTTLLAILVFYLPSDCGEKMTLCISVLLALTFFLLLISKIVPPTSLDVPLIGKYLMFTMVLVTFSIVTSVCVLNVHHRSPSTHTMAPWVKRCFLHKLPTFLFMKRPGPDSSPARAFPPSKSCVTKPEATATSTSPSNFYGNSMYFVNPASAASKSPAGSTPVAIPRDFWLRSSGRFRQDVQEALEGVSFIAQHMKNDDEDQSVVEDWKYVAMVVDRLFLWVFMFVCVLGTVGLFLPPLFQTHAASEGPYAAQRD
- Sequence (P32297 whole entry): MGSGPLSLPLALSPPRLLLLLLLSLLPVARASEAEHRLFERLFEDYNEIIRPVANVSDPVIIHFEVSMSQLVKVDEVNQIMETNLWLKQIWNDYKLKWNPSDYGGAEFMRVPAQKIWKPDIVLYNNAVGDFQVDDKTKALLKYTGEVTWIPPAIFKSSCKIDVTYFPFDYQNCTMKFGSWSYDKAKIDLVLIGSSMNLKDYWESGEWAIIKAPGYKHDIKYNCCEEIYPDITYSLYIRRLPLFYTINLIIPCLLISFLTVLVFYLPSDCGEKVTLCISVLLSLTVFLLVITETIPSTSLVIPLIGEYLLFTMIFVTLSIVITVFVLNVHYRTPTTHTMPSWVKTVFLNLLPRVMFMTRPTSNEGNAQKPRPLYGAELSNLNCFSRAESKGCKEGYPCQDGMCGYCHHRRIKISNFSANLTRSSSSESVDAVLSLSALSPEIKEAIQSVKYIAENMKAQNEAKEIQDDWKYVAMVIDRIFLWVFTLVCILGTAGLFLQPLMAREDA
- measurement_description: Agonist activity at recombinant human alpha3beta4 nAChR expressed in HEK293 cells assessed as induction of calcium influx by FLIPR assay relative to nicotine
- Type: functional, cell-based
// reported Activity per item
Write the figure, then the unit, nothing else.

query_smiles | reported_metric | observed_result
Cc1cc(N2C[C@@H]3CNC[C@@H]32)cnc1C | Activity | 78%

Fill in Activity for record `Clc1cncc(N2C[C@H]3CNC[C@H]32)c1`
81%

Identify Activity associated with the compound `Cc1ncc(N2C[C@@H]3CNC[C@@H]32)cc1C#N`
95%

# return recorded Activity for entry `N#Cc1cncc(N2C[C@H]3CNC[C@H]32)c1`
16%

Write down Activity measured for item `Cc1ncc(N2C[C@H]3CN[C@H]3C2)cc1C#N`
101%

Quote Activity reported for `Cc1cncc(N2C[C@@H]3CN[C@@H]3C2)c1` please.
74%

Look up Activity of `Brc1cc(N2C[C@@H]3CN[C@@H]3C2)cnc1Br` and report it.
90%

----------
- measurement_description: Displacement of [3H]cytisine from neuronal nicotinic acetylcholine receptor in rat brain membrane
- Assay type: cell membranes
reported_metric: pKi
Friendly reminder that pKi comes from taking -log10 of the concentration in mol/L.

query_smiles | pKi
Cc1cc(N2C[C@H]3CN[C@H]3C2)cnc1C | 9.52
NC(=O)c1cc(N2C[C@H]3CNC[C@H]32)cnc1Br | 8.19
C#Cc1cncc(N2C[C@@H]3CNC[C@@H]32)c1 | 9.22
c1cncc(N2C[C@H]3CN[C@H]3C2)c1 | 10.00

# input for lookup
Using the record for `Clc1cc(N2C[C@@H]3CN[C@@H]3C2)cnc1Cl` , state its measured pKi.
9.52

----------
- test_system: Neuronal acetylcholine receptor; alpha4/beta2 (Homo sapiens, UniProt P17787+P43681)
- measurement_description: Agonist activity at recombinant human alpha-4-beta-2 nAChR expressed in HEK293 cells assessed as induction of calcium influx by FLIPR assay relative to nicotine
- Assay type: functional, cell-based
reported_metric: Activity (%)
Give just the numeric value; % need not be written.

query_smiles | Activity [%]
Cc1cncc(N2C[C@@H]3CN[C@@H]3C2)c1 | 76
Clc1cc(N2C[C@@H]3CN[C@@H]3C2)cnc1Br | 108
N#Cc1cncc(N2C[C@H]3CNC[C@H]32)c1 | 65

Please supply the value of reported Activity for the item `c1cncc(N2C[C@H]3CN[C@H]3C2)c1`
181

Please list Activity recorded for the compound `Clc1cc(N2C[C@H]3CN[C@H]3C2)cnc1Cl`
162

Give a short answer stating reported Activity for `N#Cc1cncc(N2C[C@H]3CN[C@H]3C2)c1` .
123

----------
- test_system: Neuronal acetylcholine receptor; alpha3/beta4 (Homo sapiens, UniProt P30926+P32297)
- measurement_description: Agonist activity at recombinant human alpha-3-beta-4 nAChR expressed in HEK293 cells assessed as induction of calcium influx by FLIPR assay
- Type: functional, cell-based
- reported_conditions: read-out: Log EC50 (converted)
reported_metric: EC50 (nM)
Number only, in nM; omit the unit.

query_smiles | quantity_unit | observed_result
Brc1cncc(N2C[C@H]3CN[C@H]3C2)c1 | nM | 240
c1cncc(N2C[C@H]3CN[C@H]3C2)c1 | nM | 603
N#Cc1cncc(N2C[C@@H]3CNC[C@@H]32)c1 | nM | 12300
Cc1cc(N2C[C@H]3CN[C@H]3C2)cnc1Cl | nM | 178
Cc1cncc(N2C[C@@H]3CN[C@@H]3C2)c1 | nM | 33100
NC(=O)c1cc(N2C[C@H]3CNC[C@H]32)cnc1Br | nM | 20900

Now for a further compound.
Query EC50 for `Clc1ccc(N2C[C@H]3CN[C@H]3C2)cn1`
34.7
